Data provenance is ChEMBL document CHEMBL2331365.

SYSTEM: Transmembrane protease serine 4 (Homo sapiens)
Sequence (Q9NRS4 whole entry): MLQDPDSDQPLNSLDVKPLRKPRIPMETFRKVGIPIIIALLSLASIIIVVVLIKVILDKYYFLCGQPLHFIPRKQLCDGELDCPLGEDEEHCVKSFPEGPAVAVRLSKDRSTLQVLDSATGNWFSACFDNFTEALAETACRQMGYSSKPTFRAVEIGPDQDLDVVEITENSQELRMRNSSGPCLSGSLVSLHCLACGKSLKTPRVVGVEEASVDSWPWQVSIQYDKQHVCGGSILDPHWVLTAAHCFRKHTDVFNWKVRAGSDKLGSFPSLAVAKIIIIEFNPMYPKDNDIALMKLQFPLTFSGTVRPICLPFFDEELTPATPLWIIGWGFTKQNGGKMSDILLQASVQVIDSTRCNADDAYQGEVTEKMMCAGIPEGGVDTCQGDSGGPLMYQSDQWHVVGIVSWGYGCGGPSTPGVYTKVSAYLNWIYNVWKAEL
PROTOCOL TEXT: Inhibition of TMPRSS4 in human SW480 cells assessed as inhibition of cell invasion at 0.1 uM relative to control
Type: cell-based
EXPERIMENTAL ENDPOINT: inhibition (%)

>>> experimental_result("O=C(Nc1cc(Br)cc(C(F)(F)F)c1)c1cc(Cl)ccc1O")
43
>>> experimental_result("O=C(Nc1cc(C(F)(F)F)cc(C(F)(F)F)c1)c1cc(Cl)ccc1O")
45
>>> experimental_result("O=C(Nc1cc(C(F)(F)F)cc(C(F)(F)F)c1)c1cc([N+](=O)[O-])ccc1O")
26
>>> experimental_result("Cc1c(C(F)(F)F)cc(NC(=O)c2cc(Cl)ccc2O)cc1C(F)(F)F")
43
>>> experimental_result("O=C(Nc1cc(C(F)(F)F)c(Br)c(C(F)(F)F)c1)c1cc(Cl)ccc1O")
53
